System: M. bovis
measurement protocol: microbe, parasite or virus in culture
Assay type: cell-based, Mycobacterium bovis
particulars: Mycobacterium tuberculosis variant bovis, 336 h
Labelling: MIC reported below 0.8 µg/mL becomes label 1; at or above becomes label 0.

Reference set, count: 3
compound string	group label
CO[C@H]1/C=C/O[C@@]2(C)Oc3c(C)c(O)c4c(O)c(c(/C=N/N5CCN(C)CC5)c(O)c4c3C2=O)NC(=O)/C(C)=C\C=C\[C@H](C)[C@H](O)[C@@H](C)[C@@H](O)[C@@H](C)[C@H](OC(C)=O)[C@@H]1C	label 1
CC(=O)N[C@@H]1[C@@H](O)[C@H](O)[C@@H](CO)O[C@H]1SC(=S)N(C)C	label 0
NNC(=O)c1ccncc1	label 1

Prompt line: Item [H]/N=C(/N)N[C@H]1[C@H](O)[C@@H](O)[C@H](O[C@@H]2O[C@@H](C)[C@](O)(C=O)[C@H]2O[C@@H]2O[C@@H](CO)[C@H](O)[C@@H](O)[C@@H]2NC)[C@@H](N/C(N)=N\[H])[C@@H]1O : MIC beneath 0.8 µg/mL, strictly?
Response line: label 1

* * *

Tested on: Staphylococcus aureus
measurement protocol: microbe, parasite or virus in culture
Type: cell-based
particulars: Staphylococcus aureus
measured parameter: MIC

Worked cases, MIC given:
compound	MIC
CC(=O)N[C@@H]1[C@@H](O)[C@H](O)[C@@H](CO)O[C@H]1SC(=S)N(C)C [OCT313]	> 100 µg/mL
NNC(=O)c1ccncc1 [INH, isoniazid]	> 100 µg/mL

Prompt line: MIC for [H]/N=C(/N)N[C@H]1[C@H](O)[C@@H](O)[C@H](O[C@@H]2O[C@@H](C)[C@](O)(C=O)[C@H]2O[C@@H]2O[C@@H](CO)[C@H](O)[C@@H](O)[C@@H]2NC)[C@@H](N/C(N)=N\[H])[C@@H]1O [SM, streptomycin] ?
Response line: 6.25 µg/mL

Prompt line: Okay, and CO[C@H]1/C=C/O[C@@]2(C)Oc3c(C)c(O)c4c(O)c(c(/C=N/N5CCN(C)CC5)c(O)c4c3C2=O)NC(=O)/C(C)=C\C=C\[C@H](C)[C@H](O)[C@@H](C)[C@@H](O)[C@@H](C)[C@H](OC(C)=O)[C@@H]1C [RFP, rifampicin] ?
Response line: 0.02 µg/mL

Prompt line: Okay, and CC[C@@H](CO)NCCN[C@@H](CC)CO [EB, ethambutol] ?
Response line: > 100 µg/mL

* * *

Below, each of the molecules is paired with its reported LC50/MIC value.
System: MRC-5
particulars: human
Number, no unit, nothing else.

compound string	LC50/MIC
CC(=O)N[C@@H]1[C@@H](O)[C@H](O)[C@@H](CO)O[C@H]1SC(=S)N(C)C	242

Continue with the next molecule.
Prompt line: LC50/MIC for CC[C@@H](CO)NCCN[C@@H](CC)CO ?
Response line: 111

* * *

Below, each of the compounds is paired with its reported 85% survival conc. value.
Tested on: A549
particulars: human

compound string	tgt	85% survival conc.
CC[C@@H](CO)NCCN[C@@H](CC)CO	A549	1,000 μg/mL
[H]/N=C(/N)N[C@H]1[C@H](O)[C@@H](O)[C@H](O[C@@H]2O[C@@H](C)[C@](O)(C=O)[C@H]2O[C@@H]2O[C@@H](CO)[C@H](O)[C@@H](O)[C@@H]2NC)[C@@H](N/C(N)=N\[H])[C@@H]1O	A549	5,000 μg/mL

Continue with the next compound.
Prompt line: 85% survival conc. for NNC(=O)c1ccncc1 ?
Response line: 1,000 μg/mL
